// reported pIC50 for each item listed
# Test system: Plasmodium falciparum
# assay: Antimalarial activity against chloroquine /mefloquine/pyrimethamine-resistant Plasmodium falciparum C235 by malaria SYBR green 1-based fluorescence (MSF) assay
# Type: functional, organism-based
pIC50: −log10 of the molar value.
measure name: pIC50

compound: O=c1c(O)c(-c2ccc(O)c(O)c2)oc2cc(O)cc(O)c12
measure name: pIC50
result comparator: =
value measured: 4.89

compound: O=c1c(O)c(-c2ccc(O)c(O)c2)oc2c(CNCc3cccc(F)c3)c(O)cc(O)c12
measure name: pIC50
result comparator: =
value measured: 6.21

compound: CN1CCN(Cc2c(O)cc(O)c3c(=O)c(O)c(-c4ccc(O)c(O)c4)oc23)CC1
measure name: pIC50
result comparator: =
value measured: 5.28

compound: Oc1cc(O)c2c(c1)O[C@H](c1ccc(O)c(O)c1)[C@@H](O)C2
measure name: pIC50
result comparator: =
value measured: 5.23

compound: O=c1c(O)c(-c2ccc(O)c(O)c2)oc2c(CNCC3CCCO3)c(O)cc(O)c12 (stereo unspecified)
measure name: pIC50
result comparator: <
value measured: 5.66

compound: O=c1c(O)c(-c2ccc(O)c(O)c2)oc2c(CNCCc3ccc(Cl)cc3Cl)c(O)cc(O)c12
measure name: pIC50
result comparator: =
value measured: 7.10

###

# Tested on: Plasmodium falciparum
# assay: Antigametocytocidal activity against Plasmodium falciparum NF54-pfs16-[…] late (4 to 6) gametocyte assessed as viability after 72 hrs by MitoTracker Red CM-H2XRos/micro-plate confocal imaging system
# Format: functional, organism-based
# assay conditions: NF54, 72 h
measure name: IC50 (nM)

smiles repr: COc1ccc(C[C@H](N)C(=O)N[C@H]2[C@@H](O)[C@H](n3cnc4c(N(C)C)ncnc43)O[C@@H]2CO)cc1
assay system: Plasmodium falciparum
value measured: 194

###

# assay: Aqueous solubility of the compound at 1 mM by UV spectroscopic assay
# Assay type: physicochemical
# assay conditions: buffer

molecule: O=c1c(O)c(-c2ccc(O)c(O)c2)oc2c(CNCc3cccc(F)c3)c(O)cc(O)c12
measure unit: µM
solubility at 1000 µM: 123
//
molecule: O=c1c(O)c(-c2ccc(O)c(O)c2)oc2c(CNCCc3ccc(F)cc3)c(O)cc(O)c12
measure unit: µM
solubility at 1000 µM: 136
//
molecule: O=c1c(O)c(-c2ccc(O)c(O)c2)oc2c(CNCC3CCCO3)c(O)cc(O)c12 (centres undefined)
measure unit: µM
solubility at 1000 µM: 39
//
molecule: O=c1c(O)c(-c2ccc(O)c(O)c2)oc2c(CNCc3cccc(Cl)c3)c(O)cc(O)c12
measure unit: µM
solubility at 1000 µM: 107
//
molecule: O=c1c(O)c(-c2ccc(O)c(O)c2)oc2c(CNCCc3ccccc3Cl)c(O)cc(O)c12
measure unit: µM
solubility at 1000 µM: 85
//
molecule: CN1CCN(Cc2c(O)cc(O)c3c(=O)c(O)c(-c4ccc(O)c(O)c4)oc23)CC1
measure unit: µM
solubility at 1000 µM: 131
//
molecule: O=c1c(O)c(-c2ccc(O)c(O)c2)oc2cc(O)cc(O)c12
measure unit: µM
solubility at 1000 µM: 44
//
molecule: O=c1c(O)c(-c2ccc(O)c(O)c2)oc2c(CNCc3ccc(Cl)cc3)c(O)cc(O)c12
measure unit: µM
solubility at 1000 µM: 110
//
molecule: O=c1c(O)c(-c2ccc(O)c(O)c2)oc2c(CNCc3ccc(F)cc3)c(O)cc(O)c12
measure unit: µM
solubility at 1000 µM: 212
